These entries and their values trace back to patent US20250313563A1.

Could you please report measured pIC50 for the items listed next?
Biological target: GSK3α (GST-full length GSK3α) (Homo sapiens (Human), UniProt P49840)
Sequence (P49840 whole entry): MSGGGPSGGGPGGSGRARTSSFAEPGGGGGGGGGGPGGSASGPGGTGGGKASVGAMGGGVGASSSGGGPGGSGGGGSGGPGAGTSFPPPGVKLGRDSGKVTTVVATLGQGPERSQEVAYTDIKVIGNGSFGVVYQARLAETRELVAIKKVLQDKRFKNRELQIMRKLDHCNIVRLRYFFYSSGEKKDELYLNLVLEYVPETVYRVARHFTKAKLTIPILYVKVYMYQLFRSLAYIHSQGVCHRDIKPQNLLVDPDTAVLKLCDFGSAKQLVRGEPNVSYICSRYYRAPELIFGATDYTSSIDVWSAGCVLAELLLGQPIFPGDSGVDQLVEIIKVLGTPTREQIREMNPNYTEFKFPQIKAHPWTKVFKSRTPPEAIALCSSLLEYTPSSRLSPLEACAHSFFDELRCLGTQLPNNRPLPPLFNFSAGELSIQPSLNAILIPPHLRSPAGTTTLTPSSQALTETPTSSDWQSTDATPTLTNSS
Assay: GSK3α TR-FRET kinase assay
Assay type: biochemical
Details: 1 nM GSK3α, 4 μM ATP, 30 minute preincubation; geometric mean; read-out: GSK3-A TR-FRET BIOCHEMICAL (TR-FRET); GMean; IC50
Procedure: TR-FRET Assay: The assay was performed in a white, 384 well, low volume, flat bottom plate (Grenier). After a 30 minute preincubation in assay buffer with the indicated concentration of compound, the kinase activity was initiated by the addition of the substrates. […] After 60 min at room temperature the plate was read on Envision plate reader using Ex: 340 nm, Em: 615 nm and […]. The normalized 665/615 Signal ratio versus log compound concentration was analyzed by XLFIT to yield IC50 values.
pIC50: −log10 of the molar value.

Can you share its pIC50? I mean this molecule: CC[C@@]1(c2cccc(-c3ccnc4c(Cl)cccc34)c2)C2=C(CC(C)(C)NC2=O)Nc2n[nH]cc21
< 5.30

Need pIC50 of CCC1(c2ccccc2)C2=C(CC3(CC3)CC2=O)Nc2n[nH]cc21 (stereo not shown) , thanks.
6.00 to 7.00

Which pIC50 value belongs to C[C@@]1(c2ccccc2)C2=C(CC3(CCCC3)CC2=O)Nc2n[nH]cc21 ?
≥ 7.00

Field request: pIC50 | item: CCC1(c2cccc(C3CC3)c2)C2=C(CC(C)(C)CC2=O)Nc2n[nH]cc21 (stereo not shown)
≥ 7.00

Look up pIC50: CCC1(c2cccc(-c3c(F)cncc3OC)c2)C2=C(CC(C)(C)NC2=O)Nc2n[nH]cc21 (stereo not shown)
6.00 to 7.00

I have this molecule here, CC[C@@]1(c2ccccc2)C2=C(C[C@@]3(CCCOC3)CC2=O)Nc2n[nH]cc21 , and I need its recorded pIC50.
6.00 to 7.00

# pIC50 lookup, item CCC1(c2cccc(C(F)(F)F)c2)C2=C(Nc3n[nH]cc31)C(F)C(C)(C)CC2=O (single isomer, unassigned) [Compound 837803]
5.30 to 6.00

----------
Molecular target: UniProtKB P49841
Sequence (P49841 whole entry): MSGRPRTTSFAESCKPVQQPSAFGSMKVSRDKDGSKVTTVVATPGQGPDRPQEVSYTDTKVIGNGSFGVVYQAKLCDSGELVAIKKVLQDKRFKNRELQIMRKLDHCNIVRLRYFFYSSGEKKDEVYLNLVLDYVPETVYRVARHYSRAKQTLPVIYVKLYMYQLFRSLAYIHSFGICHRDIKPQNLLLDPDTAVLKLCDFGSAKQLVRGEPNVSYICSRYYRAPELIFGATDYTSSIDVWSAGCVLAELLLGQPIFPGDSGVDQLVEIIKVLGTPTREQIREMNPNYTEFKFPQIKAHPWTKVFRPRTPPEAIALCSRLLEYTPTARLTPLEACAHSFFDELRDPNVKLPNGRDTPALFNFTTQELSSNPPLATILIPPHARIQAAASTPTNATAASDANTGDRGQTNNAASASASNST
Assay: GSK3b TR-FRET kinase assay
Assay type: biochemical
Settings: 1 nM GSK3b, 2 μM ATP, 30 minute preincubation; read-out: GSK3-B TR-FRET BIOCHEMICAL (TR-FRET); IC50
I'd appreciate it if you could supply IC50 values for the items below.

Form field: IC50 recorded for CC[C@@]1(c2cccc(C(F)(F)F)c2)C2=C(CCN(CC(F)(F)F)C2=O)Nc2n[nH]cc21 with UniProtKB P49841 (enter value)
> 5000 nM

Lookup: IC50 / UniProtKB P49841 / CCC1(c2cccc(-c3cn[nH]c3)c2)C2=C(CC(C)(C)NC2=O)Nc2n[nH]cc21 (stereo not drawn)
100 to 1000 nM

Record lookup: for UniProtKB P49841, what IC50 belongs to CC1(C)CC(=O)C2=C(C1)Nc1n[nH]cc1C21COC2(CN(C(=O)c3ccc(F)cc3)C2)C1 (stereo not drawn) ?
≤ 100 nM

Short answer please: IC50, UniProtKB P49841, entry CC1(C)CC(=O)C2=C(C1)Nc1n[nH]cc1C21COC2(CN(C(=O)C3CCC4(CC3)COC4)C2)C1 (stereo not drawn)
100 to 1000 nM

GET /values?readout=IC50&system=UniProtKB P49841&item= CC[C@@]1(c2cccc(N(C)c3ncccn3)c2)C2=C(CC(C)(C)NC2=O)Nc2n[nH]cc21
≤ 100 nM

# get_value(readout= IC50, system= UniProtKB P49841) for CC1(C)CC(=O)C2=C(C1)Nc1n[nH]cc1C21COC2(CN(C(=O)C(F)(F)F)C2)C1 (stereo not drawn)
≤ 100 nM

Notebook entry, UniProtKB P49841 assay: IC50 of CC1(C)CC(=O)C2=C(C1)Nc1n[nH]cc1C21CCC2(CCC(=O)N2)CC1 (stereo not drawn) = ?
1000 to 5000 nM

For UniProtKB P49841, provide IC50 of CC[C@@]1(c2cccc(C(F)(F)F)c2)C2=C(CCN(C(C)C)C2=O)Nc2n[nH]cc21 please.
100 to 1000 nM

// fetch UniProtKB P49841 IC50 for CCC1(c2cccc(-c3cc(C)nn3C)c2)C2=C(CC(C)(C)NC2=O)Nc2[nH]ncc21 (stereo not drawn)
1000 to 5000 nM

Can you look up IC50 on UniProtKB P49841 for CC1(C)CC(=O)C2=C(C1)Nc1n[nH]cc1C21COC2(CN(S(C)(=O)=O)C2)C1 (stereo not drawn) ?
≤ 100 nM

Form field - read-out: IC50; system: UniProtKB P49841; submitted item: CC1(C)CC(=O)C2=C(C1)Nc1n[nH]cc1C21COC2(CN(C(=O)C(C)(F)F)C2)C1 (stereo not drawn)
≤ 100 nM

Recorded IC50 for CC1(C)CC(=O)C2=C(C1)Nc1n[nH]cc1C21CCN(S(=O)(=O)c2c(F)cc(F)cc2F)CC1 with UniProtKB P49841, please?
≤ 100 nM

What value of IC50 on UniProtKB P49841 does CCC1(c2cccc(-c3cnnc(C)c3)c2)C2=C(CC(C)(C)NC2=O)Nc2n[nH]cc21 (stereo not drawn) have?
1000 to 5000 nM

Give recorded IC50 with UniProtKB P49841 for the following molecule: CCC1(c2cccc(C(F)(F)F)c2)C2=C(CCN(c3cccnc3)C2=O)Nc2n[nH]cc21 (stereo not drawn)
100 to 1000 nM

Provide the documented IC50 with UniProtKB P49841 as the system for CCC1(c2cccc(-c3cn[nH]c3)c2)C2=C(CC(C)(C)NC2=O)Nc2n[nH]c(C)c21 (stereo not drawn)
≤ 100 nM

Which measured IC50 belongs to CCC1(c2cccc(-c3ccnc4c3CCCC4)c2)C2=C(CN(Cc3ccccc3)C2=O)Nc2n[nH]cc21 (stereo not drawn) , tested on UniProtKB P49841?
100 to 1000 nM

Given the entry CC1(C)CC(=O)C2=C(C1)Nc1n[nH]cc1C21COC2(CN(C(=O)CC3CCCC3)C2)C1 (stereo not drawn) , what IC50 was observed with UniProtKB P49841?
≤ 100 nM

Record CC1(C)CC(=O)C2=C(C1)Nc1n[nH]cc1C21COC2(CN(C(=O)c3ccccc3F)C2)C1 (stereo not drawn) : what is its IC50 with UniProtKB P49841?
≤ 100 nM

Look up IC50 with UniProtKB P49841 for this molecule: CC1CC(C(=O)N2CC3(C2)CC2(CO3)C3=C(CC(C)(C)CC3=O)Nc3n[nH]cc32)C1 (stereo not drawn) [Compound 947266]
≤ 100 nM

Checklist item: IC50 tested on UniProtKB P49841, entry CCC1(c2ccccc2)C2=C(CCN(C)C2=O)Nc2n[nH]cc21 (stereo not drawn) , value?
> 5000 nM

Form: Entry = CC[C@]1(c2cccc(-c3ccnn3C)c2)C2=C(CC(C)(C)NC2=O)Nc2n[nH]cc21 | System = UniProtKB P49841 | IC50 = ____
> 5000 nM

I'm curious: which IC50 was measured for CC1(C)CC(=O)C2=C(C1)Nc1n[nH]cc1C21COC2(CN(C(=O)C3CCC(F)CC3)C2)C1 (stereo not drawn) tested on UniProtKB P49841?
100 to 1000 nM

Notebook entry, UniProtKB P49841 assay: IC50 of CCC1(c2cccc(C(C)(C)F)c2)C2=C(CCN(C)C2=O)Nc2n[nH]cc21 (stereo not drawn) = ?
1000 to 5000 nM

Param readout = IC50; param system = UniProtKB P49841; param query = Cc1cc(C)cc(C(=O)N2CC3(C2)CC2(CO3)C3=C(CC(C)(C)CC3=O)Nc3n[nH]cc32)c1 (stereo not drawn) [Compound 947296] ; response: value
≤ 100 nM

Lab note: need IC50 with UniProtKB P49841 for entry CC[C@]1(c2cccc(C(F)(F)F)c2)C2=C(CCN(C(C)(C)C)C2=O)Nc2n[nH]cc21 , please look it up.
> 5000 nM

What is its IC50 for UniProtKB P49841? Entry: CC1CC(C(=O)N2CC3(C2)CC2(CO3)C3=C(CC(C)(C)CC3=O)Nc3n[nH]cc32)C1 (stereo not drawn) [Compound 947733]
≤ 100 nM

# returns recorded IC50 (system: UniProtKB P49841) for CC1(C)CC(=O)C2=C(C1)Nc1n[nH]cc1C21COC2(CN(C(=O)CC3CCCCC3)C2)C1 (stereo not drawn)
≤ 100 nM

Test system UniProtKB P49841; read-out IC50; what value for CC(C)S(=O)(=O)N1CCC2(CC1)C1=C(Nc3n[nH]cc32)[C@@H](F)C(C)(C)CC1=O ?
≤ 100 nM

So what IC50 did CCC1(c2cccc(C(F)(F)F)c2)C2=C(Nc3n[nH]cc31)C(C)CNC2=O (stereo not drawn) [Compound 945384] get with UniProtKB P49841?
> 5000 nM

Lab note: need IC50 with UniProtKB P49841 for entry CC[C@@]1(c2cccc(C(F)(F)F)c2)C2=C(CN(c3ccccc3)C2=O)Nc2n[nH]cc21 , please look it up.
> 5000 nM
